Overview of recorded folding stability dG unfold for various sequences
Method Description: folding stability dG unfold (combined trypsin and chymotrypsin); higher = more stable
State the answer as a number, implicitly in kcal/mol.

Residue Sequence	folding stability dG unfold, kcal/mol
SAGGSAGGSAGGMKLVTLPDGKTYPFTSLEEFKEALLKETGKPVDLKNPVIYPVPPGLSSAGGSAGGSAGGS [r10_62_JUSTAS]	0.99

// lookup folding stability dG unfold for SAGGSAGGSAPPIPIQIKIERPDPDGEKRERKIPVWIPPNNIDEIKDEAEEEGWRVKEVTISAGGSAGGSAG [r3_453_TrROS]
-0.477

// lookup folding stability dG unfold for SAGGSAGGSAGGMYSVTLTPVSSPDGELRLRAVYPELGLVRDFDPATGRPVRVVPAALLSAGGSAGGSAGGS [r10_589_JUSTAS]
-0.422
